Heads up, these molecules all have IC50 values measured for cytochrome P450 2C9-isoenzyme (Homo sapiens, UniProt P11712).

Okay, here is my list. What is IC50 for each of these?
1. CCc1cccc(CC)c1-c1ccc(F)c2c1CC[C@H]2Nc1ccc([C@H]2C[C@@H]2C(=O)O)cn1
2. Cc1cc(C(=O)O)cc(C)c1-c1ccc(F)c2c1CC[C@H]2Nc1ccc([C@H]2C[C@@H]2C(=O)O)cn1
3. Cc1cc(C(=O)N(C)C)cc(C)c1-c1ccc(F)c2c1CC[C@H]2Nc1ccc([C@H]2C[C@@H]2C(=O)O)cn1
4. Cc1cc(CO)cc(C)c1-c1ccc(F)c2c1CC[C@H]2Nc1ccc([C@H]2C[C@@H]2C(=O)O)cn1
5. Cc1cc(OCC(=O)O)cc(C)c1-c1ccc(F)c2c1CC[C@H]2Nc1ccc([C@H]2C[C@@H]2C(=O)O)cn1
6. Cc1cc(-c2ccn(C)c(=O)c2)cc(C)c1-c1ccc(F)c2c1CC[C@H]2Nc1ccc([C@H]2C[C@@H]2C(=O)O)cn1
7. Cc1cc(OCCC(C)(C)O)cc(C)c1-c1cccc2c1CC[C@H]2Nc1ccc([C@H]2C[C@@H]2C(=O)O)cn1
8. Cc1cc(OCCC(C)(C)O)cc(C)c1-c1cccc2c1CC[C@H]2Nc1ccc(C2C[C@@H]2C(=O)O)cn1 (mixture of isomers)

Output:
15 µM
> 50 µM
> 50 µM
> 50 µM
> 50 µM
> 50 µM
> 50 µM
> 50 µM

# batch: return IC50 for each of the 2 molecules below
1. Cc1cc(C#N)cc(C)c1-c1ccc(F)c2c1CC[C@H]2Nc1ccc([C@H]2C[C@@H]2C(=O)O)cn1
2. CNC(=O)c1cc(C)c(-c2ccc(F)c3c2CC[C@H]3Nc2ccc([C@H]3C[C@@H]3C(=O)O)cn2)c(C)c1

Output:
1. 33 µM
2. > 50 µM

So, Cc1cc(O[C@H]2CCOC2)cc(C)c1-c1ccc(F)c2c1CC[C@H]2Nc1ccc([C@H]2C[C@@H]2C(=O)O)cn1 ? Its IC50 was > 50 µM

###

Please respond with reported pIC50 for every item in the list.
# Assay Target: cytochrome P450 2C8-isoenzyme (Homo sapiens)
# Construct: from tissue; host or cells: human liver microsomes
# Sequence (P10632 whole entry): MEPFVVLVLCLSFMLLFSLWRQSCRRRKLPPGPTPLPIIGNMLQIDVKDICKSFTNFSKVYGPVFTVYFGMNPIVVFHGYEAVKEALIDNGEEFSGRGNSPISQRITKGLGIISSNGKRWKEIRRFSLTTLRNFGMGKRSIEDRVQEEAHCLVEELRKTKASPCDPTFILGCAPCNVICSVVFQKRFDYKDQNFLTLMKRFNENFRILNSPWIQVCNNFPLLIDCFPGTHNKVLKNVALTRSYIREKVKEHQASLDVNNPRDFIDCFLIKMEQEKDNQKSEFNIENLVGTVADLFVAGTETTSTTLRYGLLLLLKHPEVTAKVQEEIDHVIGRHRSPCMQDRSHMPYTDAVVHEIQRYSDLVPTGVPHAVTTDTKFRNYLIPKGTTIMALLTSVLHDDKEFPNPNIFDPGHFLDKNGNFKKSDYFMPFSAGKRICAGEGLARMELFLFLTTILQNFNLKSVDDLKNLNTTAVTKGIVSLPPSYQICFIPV
# Assay Details: Inhibition of CYP-2C8 (deethylation of amodiaquine, human liver microsomes)
# Type: in vitro ADME
# Experimental Conditions: CYP-2C8, human liver microsomes, amodiaquine 1 μM, 37° C.
Answers are plain numbers, as −log10 of the molar value.

Cc1cc(-c2nnn(C)n2)cc(C)c1-c1cccc2c1CC[C@H]2Nc1ccc(C2C[C@@H]2C(=O)O)cn1 (mixture of isomers) [Example 5] : 4.92
COc1cc(C)c(-c2ccc(F)c3c2CC[C@H]3Nc2ccc([C@H]3C[C@@H]3C(=O)O)cn2)c(C)c1 [Example 19] : 4.59
Cc1cc(OCC2CCOC2)cc(C)c1-c1ccc(F)c2c1CC[C@H]2Nc1ccc([C@H]2C[C@@H]2C(=O)O)cn1 (stereo partly drawn) [Example 16] : 4.34
Cc1cc(O)cc(C)c1-c1ccc(F)c2c1CC[C@H]2Nc1ccc([C@H]2C[C@@H]2C(=O)O)cn1 [Example 41] : 4.47
Cc1cc(-c2ccn(C)c(=O)c2)cc(C)c1-c1ccc(F)c2c1CC[C@H]2Nc1ccc([C@H]2C[C@@H]2C(=O)O)cn1 [Example 36] : 5.00
COc1cc(-c2cc(C)c(-c3ccc(F)c4c3CC[C@H]4Nc3ccc([C@H]4C[C@@H]4C(=O)O)cn3)c(C)c2)ccn1 [Example 72] : 5.10
Cc1cc(OCCC(C)(C)O)cc(C)c1-c1ccc(F)c2c1CC[C@H]2Nc1ccc([C@H]2C[C@@H]2C(=O)O)cn1 [Example 4] : 4.34
O=C(O)[C@H]1C[C@@H]1c1ccc(N[C@@H]2CCc3c(-c4c(F)cc(OC5CC5)cc4F)ccc(F)c32)nc1 [Example 60] : 4.60

For every listed record, write down its pIC50.
1. Cc1cc(-c2nnn[nH]2)cc(C)c1-c1ccc(F)c2c1CC[C@H]2Nc1ccc([C@H]2C[C@@H]2C(=O)O)cn1 [Example 25]
2. Cc1nc(-c2cc(C)c(-c3ccc(F)c4c3CC[C@H]4Nc3ccc([C@H]4C[C@@H]4C(=O)O)cn3)c(C)c2)no1 [Example 26]
3. Cc1cc(-c2nnn(C)n2)cc(C)c1-c1ccc(F)c2c1CC[C@H]2Nc1ccc(C2C[C@@H]2C(=O)O)cn1 (mixture of isomers) [Example 7]

Output:
[5.40, 4.46, 4.42]

The following molecules each have a reported value; give each one's pIC50.
1. COc1cc(OC)c(F)c(-c2ccc(F)c3c2CC[C@H]3Nc2ccc([C@H]3C[C@@H]3C(=O)O)cn2)c1F [Example 57]
2. Cc1ccc(Cl)c(-c2ccc(F)c3c2CC[C@H]3Nc2ccc([C@H]3C[C@@H]3C(=O)O)cn2)c1Cl [Example 51]
3. Cc1cc(C#N)cc(C)c1-c1ccc(F)c2c1CC[C@H]2Nc1ccc([C@H]2C[C@@H]2C(=O)O)cn1 [Example 20]
4. Cc1cc(-c2nnn(C)n2)cc(C)c1-c1cccc2c1CC[C@H]2Nc1ccc([C@H]2C[C@@H]2C(=O)O)cn1 [Example 1]

Output:
1: 4.72; 2: 4.92; 3: 4.62; 4: 4.80

I would be grateful if you could provide pIC50 for each of the following entries.
1. N#CC1(c2ccccc2-c2ccc(F)c3c2CC[C@H]3Nc2ccc([C@H]3C[C@@H]3C(=O)O)cn2)CC1 [Example 46]
2. O=C(O)[C@H]1C[C@@H]1c1ccc(N[C@@H]2CCc3c(-c4c(Cl)cccc4Cl)ccc(F)c32)nc1 [Example 50]
3. Cc1cc(OCCC(C)(C)O)cc(C)c1-c1cccc2c1CC[C@H]2Nc1ccc([C@H]2C[C@@H]2C(=O)O)cn1 [Example 2]

Output:
1. 4.49
2. 4.68
3. 4.52

Quick note, pIC50 for Cc1cc(OCC2(C)COC2)cc(C)c1-c1ccc(F)c2c1CC[C@H]2Nc1ccc([C@H]2C[C@@H]2C(=O)O)cn1 [Example 33] landed at 4.59

Sourced from patent US9617251B2
